Entries and their growth values follow.
- Test system: HCT-116 colon
- TEST METHOD NOTES: NCI-60 one-dose screen, 48 h (100 = growth as untreated, 0 = no growth, -100 = all killed)
- MEASUREMENT CONDITIONS: 10 µM unless noted
- Procedure: Growth inhibition of the HCT-116 human tumor cell line is measured as a screen for anti-cancer activity. Cells are grown in 96 well plates and exposed to the test compound for 48 hours. Compounds are tested at a single concentration, which is 10^-5 M for most compounds. The reported endpoint is percent growth (GI% or GIPRCNT), where numbers from 0 - 100% represent growth inhibition, and numbers from -100% - 0 represent cell death. For example, a value of 40 represents 60% growth inhibition. […]
This is part of a sample that, as a whole, favours compounds with a hit. Of some 83,000 tested, about 20% had one in any assay.
ENDPOINT LABEL: growth (%)

INSERT INTO measurements (compound, readout_unit, measured_number) VALUES
  ('ClCCn1cnc2c(SCc3ccccc3)ncnc21', '%', 31.5),
  ('COc1ccc2c(O)c(/C=C3\N=Nc4ncccc43)oc2c1C[C@@H]1CCNC[C@H]1F', '%', -59.6),
  ('O=S(Nc1ccccc1)c1ccc(Cl)cc1 (centres undefined)', '%', 92.1),
  ('Cc1nn(-c2ccc([N+](=O)[O-])cc2)c2ncnc(N/N=C/c3ccccc3O)c12', '%', 18.1),
  ('CC1(C)CC(=O)C2=C(C1)C(c1ccc(Cl)cc1)n1ncc(C#N)c1N2 (centres undefined)', '%', 98.4),
  ('CN1CCN(Cc2ccc(NC(=O)c3cncc(C#Cc4cnc(N)cc4C#N)c3)cc2C(F)(F)F)CC1', '%', 1.47),
  ('COC1C(O)CC(OC2CC(OC3CC(O[C@@H]4C(=O)c5c(cc6cc(OC7CC(OC8CC(O)C(O)C(C)O8)C(O)C(C)O7)c(C)c(O)c6c5O)CC4[C@H](OC)C(=O)C(C)=O)OC(C)C3O)OC(C)C2O)OC1C (some centres undefined)', '%', 4.47),
  ('COc1ccc(C/C(C)=C(\c2ccc(O)cc2)c2ccc(OCCN3CCCCC3)cc2)cc1', '%', 46.5),
  ('CCN(CC)CCCC(Cc1ccccc1)Nc1c2ccc(Cl)cc2nc2ccc(OC)cc12 (centres undefined)', '%', 14.6);
